- tgt: Alpha-2C adrenergic receptor (Homo sapiens)
- test: compounds altering alpha2C-coupled GIRK flux – cell-based, HEK293 alpha2C/GIRK1/2, thallium flux, primary screen (AID 624);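 also: slope of fluorescence ratio to pre-addition baseline per second over 15 to 24 s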
- condition parameters: thallium flux BTC fluorescence, at 10 µM, actives lie on both sides
Please use Y for slope under 0.005 and N for everything else, ties included.

Known results for compounds:
Given the entry O=C(O)Cn1nc2ccccc2n1 , would its reported slope be below 0.005?
N

Given the entry Cn1cccc1Cc1nnc(SCC(=O)NCc2ccc(F)cc2)n1-c1ccc(F)cc1 , would its reported slope be below 0.005?
N

---
Given the entry O=c1[nH]c(SCc2ccc(F)cc2)nc2c1cnn2-c1ccc(F)cc1 , would its reported slope be below 0.005?
N

Given the entry CCOc1ccc(-c2nc(C#N)c(N3CCN(C)CC3)o2)cc1 , would its reported slope be below 0.005?
N

Given the entry S=c1[nH]nc(-c2ccco2)n1-c1cccc2ccccc12 , would its reported slope be below 0.005?
N

Given the entry O=C(CCC1COc2ccccc2O1)NCC1COc2ccccc2O1 (configuration not stated) , would its reported slope be below 0.005?
N

Given the entry N#Cc1cc2ccc(N3CCOCC3)cc2cc1C#N , would its reported slope be below 0.005?
Y

###

- test: inhibitors of TNFa-induced NFkB p65 translocation, primary screen, imaging, HUVEC, MLSMR starter and 10KST1 sets (AID 438);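 also: compound added about 3h40 before a 20 min TNFalpha stimulation; signal is the nuclear over cytoplasmic p65 intensity ratio per well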
- condition parameters: HUVEC TNFa-induced p65 nuclear translocation; at 2 µM, active compounds read high, 0% TNFa-plus-vehicle, 100% no-TNFa wells
Known inhibition of a selection of compounds
Form entry: value (%) — number only.

Known results for compounds:
Give its inhibition value. Item: CC1(C)CNC(=O)CC(C)(C)N1O
4

Give its inhibition value. Item: Cc1cc(C)n(S(=O)(=O)c2cc(C(=O)O)c(Cl)cc2Cl)n1
-0.5

Give its inhibition value. Item: COc1ccccc1N1CCN(C(=O)c2cc(C3CC3)on2)CC1
-8.7

Give its inhibition value. Item: CCOc1cc(NC(=O)c2ccco2)c(OCC)cc1NC(=O)CCc1ccc(OC)cc1
-0.7

---
Give its inhibition value. Item: CCN(CC)S(=O)(=O)c1ccc(NC2c3ccccc3C(=O)N2CCN2CCOCC2)cc1 (centres undefined)
-12.6

Give its inhibition value. Item: COC(=O)CC1C(=O)NCCN1C(=O)NC1CCCCC1 (centres undefined)
-4.5

Give its inhibition value. Item: O=C(OCC#CCSc1nc2ccccc2s1)c1ccco1
-19.8

Give its inhibition value. Item: Clc1ss/c(=N\c2ccccn2)c1Cl
-6.5

Give its inhibition value. Item: COC(=O)CN1C(=O)CC(C)(C)S(=O)c2ccccc21 (centres undefined)
-9.2

Give its inhibition value. Item: COc1ccc(CCNC(=O)CSCc2n[nH]c(=O)[nH]2)cc1OC
1.6

Give its inhibition value. Item: O=C(Cn1c(=O)n(CC2CCCO2)c(=O)c2ccccc21)c1ccccc1 (centres undefined)
4.4

Give its inhibition value. Item: COc1cccc(CN2CCN(C(=O)c3ccco3)CC2)c1OC
13.6

Give its inhibition value. Item: COc1ccc(C(=O)N2CCN(S(=O)(=O)c3cc(Cl)ccc3OC)CC2)cc1
7.3

Give its inhibition value. Item: CC(C)Oc1ccc(N2CC(C(=O)Nc3ccccc3F)CC2=O)cc1 (centres undefined)
3.6

Give its inhibition value. Item: C=CCn1c(CC#N)nnc1N1CCOCC1
0.7

Give its inhibition value. Item: CCc1c(C)c2c(C)nn(-c3ccccc3)c2[nH]c1=O
-0.8

Give its inhibition value. Item: CC(=O)c1n[nH]nc1NC(=O)c1ccccc1
-25.8

Give its inhibition value. Item: COc1ccc(CNc2ccc(C(=O)O)cc2)cc1
-28.3

Give its inhibition value. Item: CCOc1ccc(-c2nc(C#N)c(N3CCN(C)CC3)o2)cc1
7.9

Give its inhibition value. Item: COc1ccc(NC(=O)CCc2nc(-c3ccccc3F)no2)cc1
-1.7
